Target: acetylcholine receptor
Assay: SPR, receptor immobilised on chip, peptide at 10 uM
Label fulfilled for high-side Binding affinity (RU) (at or above 30 RU) and not fulfilled for low-side Binding affinity (RU) (below it).

Use the examples below as a reference point.
KKNPKK [6mer-2-903]
fulfilled
KAKHKR [6mer-2-919]
not fulfilled
KFCIRR [6mer-2-928]
not fulfilled
KYWGRR [6mer-2-952]
not fulfilled
RFDDRR [6mer-2-974]
fulfilled

# input Binding affinity (RU) >= 30 RU for RCNPRR [6mer-2-909] ?
# output fulfilled

# input Binding affinity (RU) >= 30 RU for RYSMKR [6mer-2-933] ?
# output fulfilled

# input Binding affinity (RU) >= 30 RU for KMSGKR [6mer-2-911] ?
# output not fulfilled
